Molecular target: SpMyo1
Assay: SPOT peptide array binding signal intensity (averaged, normalized) (arbitrary units (background-subtracted, floor 0; scale differs between SH3 domains)); higher = stronger binding of the SH3 domain to the peptide
Label Y when SPOT peptide array binding signal intensity is at or above 1000; anything below gets N.

For orientation, consider the following solved cases.
> print(dat)
            binder  label.value
1  RRASLFPRDPKRLRP            N
2  NHSRSLFSLPGNQQS            N
3  DFTLPPPPPPPGLDE            Y
4  ALFRLSFFFPLDPAY            N
5  LPPPPPPPPPPPLPQ            Y

Here's the next entry for you.
In: Is reported SPOT peptide array binding signal intensity greater than or equal to 1000 here: ALKQKKIPPPFKPHL
Out: N
